Experiment: Pharmacokinetics in mouse plasma
Assay type: in vivo, CD1 mice (Mus musculus)
Details: both sexes, CD1, mouse, plasma, po; mice; 550 mg/kg (p.o.)
measurement_label: half-life (h)
Hi! Could you send only the number? It should be in h, unit omitted.

Ask | Which half-life reading was recorded for the compound `c1coc(CNc2ncnc3[nH]cnc23)c1` ?
Reply | 2.72

###

Experiment: Pharmacokinetics and metabolites in rat plasma
Assay type: in vivo, Sprague-Dawley rats (Rattus norvegicus)
Details: both sexes, Sprague-Dawley, rat, plasma, po; rats; 30 mg/kg (p.o.)
measurement_label: half-life (h)
Just the number please, in h, no unit attached.

Ask | What value of measured half-life is listed for `c1coc(CNc2ncnc3[nH]cnc23)c1` ?
Reply | 3.81

###

Experiment: Pharmacokinetics and metabolites in rat plasma
Format: in vivo, Sprague-Dawley rats (Rattus norvegicus)
Details: both sexes, Sprague-Dawley, rat, plasma, iv; rats; 1 mg/kg (i.v.)
measurement_label: AUC(0-t) (ng·h/mL)
The response must be a number in ng·h/mL with no trailing unit.

Ask | Which AUC(0-t) reading was recorded for the compound `c1coc(CNc2ncnc3[nH]cnc23)c1` ?
Reply | 77.1

###

Experiment: Pharmacokinetics and metabolites in rat plasma
Type: in vivo, Sprague-Dawley rats (Rattus norvegicus)
Conditions: both sexes, Sprague-Dawley, rat, plasma, po; rats; 30 mg/kg (p.o.)
measurement_label: Tmax (min)
Write the number in min without appending the unit.

Ask | Which Tmax value is on record for `c1coc(CNc2ncnc3[nH]cnc23)c1` ?
Reply | 15

###

Assay: Pharmacokinetics and metabolites in rat plasma
Type: in vivo, Sprague-Dawley rats (Rattus norvegicus)
Conditions: both sexes, Sprague-Dawley, rat, plasma, po; rats; 30 mg/kg (p.o.)
measurement_label: AUC(0-t)
# number then unit; no other words

Ask | Recorded AUC(0-t) for `c1coc(CNc2ncnc3[nH]cnc23)c1` , please?
Reply | 1500 ng·h/mL

###

Assay: in vivo
Settings: both sexes, mouse, mice, oral, read-out: Recommended dose for repeated exposure (MTD assay)
measurement_label: MTD

Ask | Fill in: MTD of `c1coc(CNc2ncnc3[nH]cnc23)c1` is ___
Reply | 550 mg/kg

###

Assay: Pharmacokinetics in mouse plasma
Format: in vivo, CD1 mice (Mus musculus)
Conditions: both sexes, CD1, mouse, plasma, po; mice; 30 mg/kg (p.o.)
measurement_label: Tmax
Please don't drop the unit; write it after the number.

Ask | Which measured Tmax value corresponds to `c1coc(CNc2ncnc3[nH]cnc23)c1` ?
Reply | 4.98 min

###

Test: Pharmacokinetics and metabolites in rat plasma
Type: in vivo, Sprague-Dawley rats (Rattus norvegicus)
Details: both sexes, Sprague-Dawley, rat, plasma, po; rats; 30 mg/kg (p.o.)
measurement_label: Cmax (ng/mL)
Return type: number; implicit unit ng/mL.

Ask | Cmax lookup needed for `c1coc(CNc2ncnc3[nH]cnc23)c1` , thanks.
Reply | 370

###

Assay: Pharmacokinetics and metabolites in rat plasma
Type: in vivo, Sprague-Dawley rats (Rattus norvegicus)
Settings: both sexes, Sprague-Dawley, rat, plasma, iv; rats; 1 mg/kg (i.v.)
measurement_label: Tmax

Ask | What value of Tmax has been recorded for this entry: c1coc(CNc2ncnc3[nH]cnc23)c1 [MB-905, N6-furfurylaminopurine]
Reply | 4.98 min

###

Assay: Pharmacokinetics in mouse plasma
Assay type: in vivo, CD1 mice (Mus musculus)
Conditions: both sexes, CD1, mouse, plasma, iv; mice; 3 mg/kg (i.v.)
measurement_label: Tmax (min)
Kindly provide the numeric value in min only, without the unit symbol.

Ask | Given the entry c1coc(CNc2ncnc3[nH]cnc23)c1 [MB-905, N6-furfurylaminopurine] , report its measured Tmax.
Reply | 4.98
